Cited source for all entries: paper PMC2756588

- measured_on: T1, Lsb3, P43603
- T1 sequence (P43603 385-451, looked up): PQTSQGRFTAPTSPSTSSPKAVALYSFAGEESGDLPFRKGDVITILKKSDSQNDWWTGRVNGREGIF
- test: SPOT array
- condition_parameters: median of control spots 406
assay_metric: SPOT intensity
Numbers only.

Some binders with known SPOT intensity results, for comparison:
binder=ALKQKKIPPPFKPHL assay_metric="SPOT intensity" endpoint_result=0
binder=QQNRPLPQLPNRNNR assay_metric="SPOT intensity" endpoint_result=484
binder=GKKVRPLLVLLLSRA assay_metric="SPOT intensity" endpoint_result=6

Consider now this further binder.
Short answer for `ANNQGPPNLPARDKS` : SPOT intensity was 478
